tested on: TTR; test: EC50 and maximum editing in primary cyno hepatocytes treated with LNP formulated U-depleted Spy Cas9 mRNA and sgRNAs (Tables 20, 22); format: cell-based, cynomolgus monkey; parameters: key: % of sequence reads with indels or substitutions over total reads; conditions: Table 20, LNP with U-depleted Spy Cas9 mRNA and human specific sgRNAs, dose response
Strand notation (5' to 3'): a small letter for the sugar, then the base; units joined by * are phosphorothioate-linked, units joined directly phosphodiester-linked; [ ] holds rarer units or linkages, { } end groups; capitals alone tell only the bases. m = 2'-O-methyl; r = 2'-OH (RNA)
readout.name: Max Editing
Just the number, please, no unit attached.

Quick one: Max Editing of G000571: TTR sgRNA modified sequence, Human, SEQ ID No. 112; guide sequence of CR005301 (nucleic acid) guide: mG*mU*mC*rArCrArGrArArArCrArCrUrCrArCrCrGrUrGrUrUrUrUrArGrAmGmCmUmAmGmAmAmAmUmAmGmCrArArGrUrUrArArArArUrArArGrGrCrUrArGrUrCrCrGrUrUrArUrCrAmAmCmUmUmGmAmAmAmAmAmGmUmGmGmCmAmCmCmGmAmGmUmCmGmGmUmGmCmU*mU*mU*mU ?
97.03

Quick one: Max Editing of G000493: TTR sgRNA modified sequence, Human, SEQ ID No. 100; guide sequence of CR003368 (nucleic acid) guide: mA*mA*mG*rUrGrCrCrUrUrCrCrArGrUrArArGrArUrUrGrUrUrUrUrArGrAmGmCmUmAmGmAmAmAmUmAmGmCrArArGrUrUrArArArArUrArArGrGrCrUrArGrUrCrCrGrUrUrArUrCrAmAmCmUmUmGmAmAmAmAmAmGmUmGmGmCmAmCmCmGmAmGmUmCmGmGmUmGmCmU*mU*mU*mU ?
61.15

Quick one: Max Editing of G000499: TTR sgRNA modified sequence, Human, SEQ ID No. 106; guide sequence of CR005303 (nucleic acid) guide: mU*mG*mA*rArUrCrCrArArGrUrGrUrCrCrUrCrUrGrArGrUrUrUrUrArGrAmGmCmUmAmGmAmAmAmUmAmGmCrArArGrUrUrArArArArUrArArGrGrCrUrArGrUrCrCrGrUrUrArUrCrAmAmCmUmUmGmAmAmAmAmAmGmUmGmGmCmAmCmCmGmAmGmUmCmGmGmUmGmCmU*mU*mU*mU ?
74.94
